System: Sclerotinia sclerotiorum
measurement_description: Fungicidal activity against Sclerotinia sclerotiorum assessed as mycelium growth inhibition at 30 ug/mL after 72 hrs
Format: functional
measurement_conditions: read-out: GI
property_label: inhibition of growth at 30 µg/mL (%)
Give the quantity in %, number only.

# compound, property_label, val
records = [
    ("O=[N+]([O-])c1cc(O)c2c(CCn3cncn3)c(-c3ccc(F)cc3)[nH]c2c1", "inhibition of growth at 30 µg/mL", 17),
    ("O=[N+]([O-])c1cc(O)c2cc(-c3ccccc3)n(Cc3ccc(Cl)cc3)c2c1", "inhibition of growth at 30 µg/mL", 2),
    ("O=[N+]([O-])c1cc(O)c2cc(-c3ccccc3)[nH]c2c1", "inhibition of growth at 30 µg/mL", 100),
    ("O=[N+]([O-])c1cc(O)c2cc(-c3ccccc3Cl)[nH]c2c1", "inhibition of growth at 30 µg/mL", 100),
    ("COc1cc([N+](=O)[O-])cc2c1c(C)c(-c1ccccc1)n2C", "inhibition of growth at 30 µg/mL", 0),
    ("COc1cc([N+](=O)[O-])cc2[nH]c(-c3ccccc3)c(C)c12", "inhibition of growth at 30 µg/mL", 5),
    ("O=[N+]([O-])c1cc(O)c2cc(-c3ccc(O)cc3)[nH]c2c1", "inhibition of growth at 30 µg/mL", 19),
    ("CC(C)(C)C(=O)C(Oc1ccc(Cl)cc1)n1cncn1 (stereo unspecified)", "inhibition of growth at 30 µg/mL", 47),
]

Prompt: Report inhibition of growth at 30 µg/mL for `Cn1c(-c2ccccc2)cc2c(O)cc([N+](=O)[O-])cc21` tested on Sclerotinia sclerotiorum.
Completion: 23

Prompt: Value wanted: inhibition of growth at 30 µg/mL (Sclerotinia sclerotiorum) of entry `O=[N+]([O-])c1cc(O)c2cc(-c3ccc(Br)cc3)[nH]c2c1`
Completion: 14

Prompt: Observed inhibition of growth at 30 µg/mL on Sclerotinia sclerotiorum for `Nc1cc([N+](=O)[O-])c2cc(-c3ccccc3)oc2c1` , please.
Completion: 7

###

System: Fusarium oxysporum
measurement_description: Fungicidal activity against Fusarium oxysporum assessed as mycelium growth inhibition at 30 ug/mL after 72 hrs
Format: functional
measurement_conditions: read-out: GI
Okay, here is how we bin by inhibition of growth at 30 µg/mL: small value = under 20%, mid value = from 20% up to 60%, large value = 60% and over

The following molecules have reported results that may help.
# record_smiles, target_of_assay, category_label
data = [
    ("COc1cc([N+](=O)[O-])cc2[nH]c(-c3ccccc3)c(C)c12", "Fusarium oxysporum", "small value"),
    ("Cc1c(-c2ccccc2)[nH]c2cc([N+](=O)[O-])cc(O)c12", "Fusarium oxysporum", "large value"),
    ("O=[N+]([O-])c1cc(O)c2cc(-c3ccc(F)cc3)[nH]c2c1", "Fusarium oxysporum", "mid value"),
    ("Cc1c(-c2ccccc2)[nH]c2c(O)ccc([N+](=O)[O-])c12", "Fusarium oxysporum", "large value"),
    ("O=[N+]([O-])c1cc(O)c2cc(-c3ccccc3Cl)[nH]c2c1", "Fusarium oxysporum", "large value"),
    ("O=[N+]([O-])c1cc(O)c2c(CCn3cncn3)c(-c3ccc(F)cc3)[nH]c2c1", "Fusarium oxysporum", "mid value"),
    ("COc1ccccc1-c1cc2c(O)cc([N+](=O)[O-])cc2[nH]1", "Fusarium oxysporum", "small value"),
    ("Cc1c(-c2ccccc2)[nH]c2c([N+](=O)[O-])cc(O)cc12", "Fusarium oxysporum", "mid value"),
]

Prompt: Assign a category based on measured inhibition of growth at 30 µg/mL for `O=[N+]([O-])c1cc(O)c2cc(-c3ccc(O)cc3)[nH]c2c1` and give only the class name.
Completion: mid value

Prompt: GET /class?item= `COc1cc([N+](=O)[O-])cc2c1c(C)c(-c1ccccc1)n2C`
Completion: small value

Prompt: Dear colleague, I would appreciate it if you could identify the bin for `O=[N+]([O-])c1cc(O)c2cc(-c3ccc(Cl)cc3Cl)[nH]c2c1` and reply at your convenience.
Completion: mid value

###

Tested on: Fusarium oxysporum
measurement_description: Fungicidal activity against Fusarium oxysporum assessed as mycelium growth inhibition at 30 ug/mL after 72 hrs
Assay type: functional
measurement_conditions: read-out: GI
property_label: inhibition of growth at 30 µg/mL (%)
Give the quantity in %, number only.

# compound, property_label, unit_text, val
measured = [
    ("Nc1cc([N+](=O)[O-])c2cc(-c3ccccc3)oc2c1", "inhibition of growth at 30 µg/mL", "%", 9),
]

Prompt: Would you kindly share the measured inhibition of growth at 30 µg/mL for `COc1cc([N+](=O)[O-])cc2c1cc(-c1ccccc1)n2C` ?
Completion: 7

Prompt: # get_value(readout='inhibition of growth at 30 µg/mL', item= `O=[N+]([O-])c1cc(O)c2cc(-c3ccccc3)[nH]c2c1` )
Completion: 88

###

Test system: Sclerotinia sclerotiorum
measurement_description: Fungicidal activity against Sclerotinia sclerotiorum assessed as mycelium growth inhibition at 30 ug/mL after 72 hrs
Type: functional
measurement_conditions: read-out: GI
Decide using inhibition of growth at 30 µg/mL: a value greater than or equal to 50% is condition met, a smaller one is condition not met.

Solved entries (count: 5):
# record_smiles, category_label
data = [
    ("O=[N+]([O-])c1cc(O)c2cc(-c3ccc(F)cc3)[nH]c2c1", "condition not met"),
    ("Cc1c(-c2ccccc2)[nH]c2c(O)cc([N+](=O)[O-])cc12", "condition met"),
    ("Cc1c(-c2ccccc2)[nH]c2cc([N+](=O)[O-])cc(O)c12", "condition met"),
    ("Cc1c(-c2ccccc2)[nH]c2c(O)ccc([N+](=O)[O-])c12", "condition met"),
    ("O=[N+]([O-])c1cc(O)c2cc(-c3ccc(Cl)cc3Cl)[nH]c2c1", "condition not met"),
]

Prompt: In plain terms: is recorded inhibition of growth at 30 µg/mL at least 50% for `O=[N+]([O-])c1cc(O)c2cc(-c3ccc(C(F)(F)F)cc3)[nH]c2c1` ?
Completion: condition met

Prompt: Does `COc1cc([N+](=O)[O-])cc2c1cc(-c1ccccc1)n2C` have a reported inhibition of growth at 30 µg/mL of at least 50%?
Completion: condition not met

Prompt: Item `COc1ccccc1-c1cc2c(O)cc([N+](=O)[O-])cc2[nH]1` with inhibition of growth at 30 µg/mL of 50% or above?
Completion: condition not met

###

# inhibition of growth at 30 µg/mL annotations
Test system: Fusarium oxysporum
measurement_description: Fungicidal activity against Fusarium oxysporum assessed as mycelium growth inhibition at 30 ug/mL after 72 hrs
Format: functional
measurement_conditions: read-out: GI
Provide only the numeric value, understood in %.

# compound, inhibition of growth at 30 µg/mL [%]
rows = [
    ("Cc1c(-c2ccccc2)[nH]c2c(O)cc([N+](=O)[O-])cc12", 63),
    ("O=[N+]([O-])c1cc(O)c2cc(-c3ccc(C(F)(F)F)cc3)[nH]c2c1", 71),
    ("Cn1c(-c2ccccc2)cc2c(O)cc([N+](=O)[O-])cc21", 56),
    ("CC(C)(C)C(=O)C(Oc1ccc(Cl)cc1)n1cncn1 (configuration not stated) [TRIADIMEFON]", 60),
    ("Cc1c(-c2ccccc2)[nH]c2c([N+](=O)[O-])ccc(O)c12", 73),
    ("O=[N+]([O-])c1cc(O)c2cc(-c3ccccc3)n(Cc3ccc(Cl)cc3)c2c1", 27),
]

Then this compound:
Prompt: What does the data say about its inhibition of growth at 30 µg/mL? Entry: `O=[N+]([O-])c1cc(O)c2cc(-c3ccc(Br)cc3)[nH]c2c1`
Completion: 12
